Entry source: patent US20030114529A1

Protein target, amino acids: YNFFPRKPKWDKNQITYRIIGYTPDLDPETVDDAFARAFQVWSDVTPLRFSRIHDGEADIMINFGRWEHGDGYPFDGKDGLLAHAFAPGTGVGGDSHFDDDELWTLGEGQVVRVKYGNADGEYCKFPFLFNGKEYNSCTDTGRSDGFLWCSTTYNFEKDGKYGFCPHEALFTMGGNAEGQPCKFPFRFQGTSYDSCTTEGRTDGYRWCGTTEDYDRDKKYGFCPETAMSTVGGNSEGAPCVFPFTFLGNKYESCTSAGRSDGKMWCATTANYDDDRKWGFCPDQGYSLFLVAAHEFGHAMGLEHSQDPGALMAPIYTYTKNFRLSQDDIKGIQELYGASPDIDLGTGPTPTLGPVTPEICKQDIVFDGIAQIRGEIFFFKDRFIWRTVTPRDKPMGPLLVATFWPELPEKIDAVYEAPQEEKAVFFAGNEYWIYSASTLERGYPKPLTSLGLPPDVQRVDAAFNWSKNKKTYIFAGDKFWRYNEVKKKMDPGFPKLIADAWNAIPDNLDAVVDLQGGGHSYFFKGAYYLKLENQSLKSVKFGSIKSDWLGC
pKi: −log10 of the molar value.
RECORDED_ENDPOINT: pKi

[[record]]
compound = "CNC(=O)[C@@H](NC(=O)[C@@H](CC(=O)NO)CC(C)C)C(C)C"
recorded_endpoint = "pKi"
result_modifier = "="
val = 7.44

[[record]]
compound = "CNC(=O)C(Cc1ccc(F)cc1)NC(=O)C(CC(=O)NO)CC(C)C (centres unmarked)"
recorded_endpoint = "pKi"
result_modifier = "="
val = 8.64

[[record]]
compound = "CNC(=O)C(C)NC(=O)C(CC(=O)NO)CC(C)C (centres unmarked)"
recorded_endpoint = "pKi"
result_modifier = "="
val = 7.23

[[record]]
compound = "CNC(=O)C(Cc1ccccc1)NC(=O)C(CC(=O)O)CC(C)C (centres unmarked)"
recorded_endpoint = "pKi"
result_modifier = "<"
val = 6.00

[[record]]
compound = "CNC(=O)C(Cc1ccc(OCc2ccccc2)cc1)NC(=O)C(CC(=O)NO)CC(C)C (centres unmarked)"
recorded_endpoint = "pKi"
result_modifier = ">"
val = 10.00


====

TEST_TARGET: Collagenase MMP-1 (Homo sapiens, UniProt P03956)
Sequence (P03956 100-469): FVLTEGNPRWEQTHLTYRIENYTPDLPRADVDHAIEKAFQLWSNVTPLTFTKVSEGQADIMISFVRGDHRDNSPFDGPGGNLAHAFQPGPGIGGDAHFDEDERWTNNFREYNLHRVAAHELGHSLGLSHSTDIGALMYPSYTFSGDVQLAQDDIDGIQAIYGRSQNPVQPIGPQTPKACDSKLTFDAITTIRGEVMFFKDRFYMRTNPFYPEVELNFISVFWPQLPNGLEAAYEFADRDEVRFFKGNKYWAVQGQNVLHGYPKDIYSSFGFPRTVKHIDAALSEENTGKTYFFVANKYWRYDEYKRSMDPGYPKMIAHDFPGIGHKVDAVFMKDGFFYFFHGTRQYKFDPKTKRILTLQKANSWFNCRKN
pKi: −log10 of the molar value.
RECORDED_ENDPOINT: pKi

[[record]]
compound = "CNC(=O)C(Cc1ccc(F)cc1)NC(=O)C(CC(=O)NO)CC(C)C (stereo not shown) [JWC-95]"
recorded_endpoint = "pKi"
val = 8.23

